target: T1, recombinant ILT2 (human) (human, UniProt Q8NHL6 24-461); assay: SPR (Biacore T200), HEK EBNA supernatants on recombinant ILT2 peptide
T1 construct: also called recombinant ILT2 peptide; ILT2 protein
T1 sequence (Q8NHL6 24-461 limits assumed): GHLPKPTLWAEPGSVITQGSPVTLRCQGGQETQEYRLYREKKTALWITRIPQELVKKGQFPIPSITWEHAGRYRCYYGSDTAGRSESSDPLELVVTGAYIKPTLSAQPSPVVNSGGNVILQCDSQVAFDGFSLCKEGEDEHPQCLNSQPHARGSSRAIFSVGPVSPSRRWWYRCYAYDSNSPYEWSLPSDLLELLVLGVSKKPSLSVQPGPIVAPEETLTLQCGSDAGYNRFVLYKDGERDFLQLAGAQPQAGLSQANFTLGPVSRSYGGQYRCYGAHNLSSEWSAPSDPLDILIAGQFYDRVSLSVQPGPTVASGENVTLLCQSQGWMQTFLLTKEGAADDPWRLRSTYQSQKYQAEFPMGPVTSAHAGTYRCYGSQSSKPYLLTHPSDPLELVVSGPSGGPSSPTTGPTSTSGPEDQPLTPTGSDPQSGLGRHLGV
reported-property: pKd
Note on units: pKd is unitless, being -log10 of a concentration expressed in mol/L.

binder	reported-property	observed
humanized 15G8 VH4/Vk3 (antibody, IgG4, V domains shown, Humanized IgG4 (S228P, L235E), kappa; tested as supernatant of transiently transfected HEK EBNA cells) VH: QVQLQGSGPGLVKPSETLSLTCSVTGYSITSGYYWNWIRQPPGKGLEWMGYISYDGSNNYNPSLKNRVTISRDTSKNQFSLKLSSVTAADTATYYCAHGYSYYYAMDAWGQGTTVTVSS VL: DIQMTQSPSSLSASVGDRVTITCRTSQDISNYLNWYQQKPGKAVKLLISYTSRLHSGVPSRFSGSGSGTDYTLTISSLQPEDFATYYCQQGNTLPTFGQGTKLEIK	pKd	8.02
humanized 15G8 VH2/Vk2 (antibody, IgG4, V domains shown, Humanized IgG4 (S228P, L235E), kappa; tested as supernatant of transiently transfected HEK EBNA cells) VH: DVQLQGSGPGLVKPSETLSLTCSVTGYSITSGYYWNWIRQFPGKKLEWMGYISYDGSNNYNPSLKNRITISRDTSKNQFSLKLSSVTAADTATYYCAHGYSYYYAMDAWGQGTTVTVSS VL: DIQMTQSPSSLSASVGDRVTITCRTSQDISNYLNWYQQKPGKAVKLLISYTSRLHSGVPSRFSGSGSGTDYTLTISSLQPEDFATYFCQQGNTLPTFGQGTKLEIK	pKd	8.06

Qu. Given the binder humanized 15G8 VH3/Vk1 (antibody, IgG4, V domains shown, Humanized IgG4 (S228P, L235E), kappa; tested as supernatant of transiently transfected HEK EBNA cells) VH: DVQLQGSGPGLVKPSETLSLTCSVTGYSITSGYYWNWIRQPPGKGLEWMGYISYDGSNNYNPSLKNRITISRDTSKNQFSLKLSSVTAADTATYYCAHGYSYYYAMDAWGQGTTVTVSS VL: DIQMTQSTSSLSASVGDRVTITCRTSQDISNYLNWYQQKPGKAVKLLISYTSRLHSGVPSRFSGSGSGTDYTLTISSLQQEDFATYFCQQGNTLPTFGQGTKLEIK , what is its reported pKd?
Ans. 8.07

Source listed as patent US20220048991A1.
